molecular target: Neuronal acetylcholine receptor; alpha3/beta4 (Homo sapiens) (UniProt P30926+P32297); assay: Antagonist activity against human ganglionic alpha3beta4 nAChR in SHSY5Y cells assessed as inhibition of carbamylcholine induced 86Rb+ efflux at 10 uM; format: functional, cell-based; conditions: SH-SY5Y
Activity calls are given as the source filed them. The rule behind the calls is not given here.
Reported endpoint: inhibition

>>> measurement("Cc1ccc([C@H]2C[C@@H]3CC[C@H]([C@H]2C(=O)OC2CCC2)N3C)cc1")
"Active"
>>> measurement("CCc1cc([C@H]2[C@@H](c3ccc(C)cc3)C[C@@H]3CC[C@H]2N3C)on1")
"Active"
>>> measurement("Cc1cc2nc([C@H]3[C@@H](c4ccc(Cl)cc4)C[C@@H]4CC[C@H]3N4C)[nH]c2cc1C")
"Active"
>>> measurement("COc1ccc(-c2cc([C@H]3[C@@H](c4ccc(Cl)cc4)C[C@@H]4CC[C@H]3N4C)on2)cc1")
"Active"

* * *

tested on: Mus musculus; assay: Inhibition of nicotine-induced antinociception activity in ICR mouse assessed as paw licking and jumping latency dministered subcutaneously 15 mins prior to nicotine challenge and measured after 5 mins of 2.5 mg/kg nicotine challenge by hot plate test; assay type: functional, organism-based; design: dose 2.5 mg/kg, route subcutaneous
Criterion: IC50 strictly under 3 mg/kg. Met: MET. Not met: NOT MET.

Record excerpt, results attached:
>>> label("COC(=O)[C@H]1[C@@H](c2ccc(Cl)c(C)c2)C[C@@H]2CC[C@H]1N2C")
"MET"
>>> label("CCc1cc([C@H]2[C@@H](c3ccc(C)cc3)C[C@@H]3CC[C@H]2N3C)on1")
"MET"
>>> label("Cc1cc2nc([C@H]3[C@@H](c4ccc(Cl)cc4)C[C@@H]4CC[C@H]3N4C)[nH]c2cc1C")
"NOT MET"
>>> label("COc1ccc(-c2cc([C@H]3[C@@H](c4ccc(Cl)cc4)C[C@@H]4CC[C@H]3N4C)on2)cc1")
"NOT MET"
>>> label("COC(=O)[C@@H]1[C@H]2CC[C@@H](C[C@H]1c1ccc(C)c(F)c1)N2")
"MET"

Input line: Does Cc1ccc([C@H]2C[C@@H]3CC[C@H]([C@H]2C(=O)OC(C)C)N3C)cc1 have IC50 strictly under 3 mg/kg?
Output line: NOT MET

Input line: Does Cc1cc([C@H]2[C@@H](c3ccc(Cl)c(C)c3)C[C@@H]3CC[C@H]2N3C)on1 have IC50 strictly under 3 mg/kg?
Output line: NOT MET

Input line: Does COC(=O)[C@@H]1[C@H]2CC[C@@H](C[C@H]1c1ccc(Cl)c(C)c1)N2C have IC50 strictly under 3 mg/kg?
Output line: NOT MET

* * *

tested on: Mus musculus; assay: Inhibition of nicotine-induced antinociception activity in ICR mouse assessed as latency to remove tail administered subcutaneously 15 mins prior to nicotine challenge and measured after 5 mins of 2.5 mg/kg nicotine challenge by tail-flick test; format: functional, organism-based; parameters: dose 2.5 mg/kg, route subcutaneous
Reported endpoint: log10(IC50) (log10 of the value in mg/kg)
Annotation: log10 of IC50, mg/kg basis.

For orientation, consider the following solved cases.
>>> measurement("COc1ccc(-c2cc([C@H]3[C@@H](c4ccc(Cl)cc4)C[C@@H]4CC[C@H]3N4C)on2)cc1")
-1.74
>>> measurement("CCc1cc([C@H]2[C@@H](c3ccc(C)cc3)C[C@@H]3CC[C@H]2N3C)on1")
-2.10

The reported log10(IC50) value, Mus musculus, for Cc1ccc([C@H]2C[C@@H]3CC[C@H]([C@H]2C(=O)OC(C)C)N3C)cc1 reads -1.82

The reported log10(IC50) value, Mus musculus, for COC(=O)[C@@H]1[C@H]2CC[C@@H](C[C@H]1c1ccc(Cl)c(C)c1)N2C reads -1.59

The reported log10(IC50) value, Mus musculus, for COC(=O)[C@H]1[C@@H](c2ccc(Cl)c(C)c2)C[C@@H]2CC[C@H]1N2 reads -2.52

The reported log10(IC50) value, Mus musculus, for Cc1cc2nc([C@H]3[C@@H](c4ccc(Cl)cc4)C[C@@H]4CC[C@H]3N4C)[nH]c2cc1C reads -0.96

The reported log10(IC50) value, Mus musculus, for Cc1cc([C@H]2C[C@@H]3CC[C@H]([C@H]2c2cc(-c4ccccc4)no2)N3C)ccc1Cl reads 0.40

* * *

system: Mus musculus; test: Inhibition of nicotine-induced conditioned place preference in ICR mouse assessed as activity count and time spent in chamberdministered subcutaneously 15 mins prior to 0.5 mg/kg nicotine challenge up to 4 days using photosensors; format: functional, organism-based; set-up: dose 0.5 mg/kg, route subcutaneous
// IC50 lookup, one value per entry
Please state the figure in mg/kg; there is no need to write the unit.

Reported IC50 of Cc1cc2nc([C@H]3[C@@H](c4ccc(Cl)cc4)C[C@@H]4CC[C@H]3N4C)[nH]c2cc1C : 0.45

Reported IC50 of COC(=O)[C@@H]1[C@H]2CC[C@@H](C[C@H]1c1ccc(Cl)c(C)c1)N2C : 0.15

Reported IC50 of COC(=O)[C@H]1[C@@H](c2ccc(Cl)c(C)c2)C[C@@H]2CC[C@H]1N2C : 0.25

Reported IC50 of COC(=O)[C@H]1[C@@H](c2ccc(Cl)c(C)c2)C[C@@H]2CC[C@H]1N2 : 0.25

Reported IC50 of Cc1ccc([C@H]2C[C@@H]3CC[C@H]([C@H]2c2cc(-c4ccc(Cl)cc4)no2)N3C)cc1 : 0.013

Reported IC50 of COC(=O)[C@@H]1[C@H]2CC[C@@H](C[C@H]1c1ccc(C)c(F)c1)N2 : 0.03

Reported IC50 of Cc1cc([C@H]2[C@@H](c3ccc(Cl)c(C)c3)C[C@@H]3CC[C@H]2N3C)on1 : 0.09

* * *

molecular target: Sodium-dependent dopamine transporter (Homo sapiens); test: Inhibition of human DAT expressed in HEK293 cells assessed as inhibition of [3H]DA reuptake after 10 mins by scintillation counting
Sequence (Q01959 whole entry): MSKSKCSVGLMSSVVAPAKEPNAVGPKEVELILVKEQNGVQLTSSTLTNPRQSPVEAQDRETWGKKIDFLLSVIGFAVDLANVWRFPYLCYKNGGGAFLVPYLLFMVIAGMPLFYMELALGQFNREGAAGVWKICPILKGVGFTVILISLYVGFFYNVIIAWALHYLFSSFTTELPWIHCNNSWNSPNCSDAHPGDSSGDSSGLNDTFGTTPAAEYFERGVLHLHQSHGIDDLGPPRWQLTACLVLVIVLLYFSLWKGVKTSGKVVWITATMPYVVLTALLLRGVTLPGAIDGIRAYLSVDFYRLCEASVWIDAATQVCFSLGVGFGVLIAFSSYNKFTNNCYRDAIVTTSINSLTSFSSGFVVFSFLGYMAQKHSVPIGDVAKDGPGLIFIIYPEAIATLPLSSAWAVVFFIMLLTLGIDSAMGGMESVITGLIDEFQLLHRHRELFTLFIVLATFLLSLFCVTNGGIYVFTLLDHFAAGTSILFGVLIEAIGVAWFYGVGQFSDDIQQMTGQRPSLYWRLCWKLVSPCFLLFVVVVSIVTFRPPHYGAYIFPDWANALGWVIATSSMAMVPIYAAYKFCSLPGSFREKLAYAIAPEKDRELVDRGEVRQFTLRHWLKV
Reported endpoint: pIC50
To interpret pIC50, take it as minus log10 of a concentration measured in moles per litre.

For orientation, consider the following solved cases.
>>> measurement("Cc1ccc([C@H]2C[C@@H]3CC[C@H]([C@H]2C(=O)OC(C)C)N3C)cc1")
9.08
>>> measurement("Cc1ccc([C@H]2C[C@@H]3CC[C@H]([C@H]2c2cc(-c4ccc(Cl)cc4)no2)N3C)cc1")
7.96
>>> measurement("CCc1cc([C@H]2[C@@H](c3ccc(C)cc3)C[C@@H]3CC[C@H]2N3C)on1")
9.12

From here, focus on the item given below.
Reported pIC50 of Cc1cc2nc([C@H]3[C@@H](c4ccc(Cl)cc4)C[C@@H]4CC[C@H]3N4C)[nH]c2cc1C : 8.14

* * *

molecular target: Acetylcholine receptor; alpha1/beta1/delta/gamma (Homo sapiens, UniProt P02708+P07510+P11230+Q07001); assay: Antagonist activity against human muscle-type alpha1beta1gammadelta nAChR in TE671/RD cells assessed as inhibition of carbamylcholine induced 86Rb+ efflux
Sequence (P02708 whole entry): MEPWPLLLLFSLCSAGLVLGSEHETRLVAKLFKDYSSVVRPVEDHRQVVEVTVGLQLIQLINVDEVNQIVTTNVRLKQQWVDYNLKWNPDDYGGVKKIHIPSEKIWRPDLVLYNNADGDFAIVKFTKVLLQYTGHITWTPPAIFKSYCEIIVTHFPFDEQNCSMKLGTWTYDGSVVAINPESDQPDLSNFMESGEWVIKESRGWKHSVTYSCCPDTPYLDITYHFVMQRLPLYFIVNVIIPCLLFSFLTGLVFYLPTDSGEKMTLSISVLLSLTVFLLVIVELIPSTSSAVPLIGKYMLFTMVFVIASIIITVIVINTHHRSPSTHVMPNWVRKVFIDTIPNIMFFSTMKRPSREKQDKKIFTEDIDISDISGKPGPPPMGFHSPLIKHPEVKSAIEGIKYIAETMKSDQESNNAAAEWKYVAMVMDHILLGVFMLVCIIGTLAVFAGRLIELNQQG
Sequence (P07510 whole entry): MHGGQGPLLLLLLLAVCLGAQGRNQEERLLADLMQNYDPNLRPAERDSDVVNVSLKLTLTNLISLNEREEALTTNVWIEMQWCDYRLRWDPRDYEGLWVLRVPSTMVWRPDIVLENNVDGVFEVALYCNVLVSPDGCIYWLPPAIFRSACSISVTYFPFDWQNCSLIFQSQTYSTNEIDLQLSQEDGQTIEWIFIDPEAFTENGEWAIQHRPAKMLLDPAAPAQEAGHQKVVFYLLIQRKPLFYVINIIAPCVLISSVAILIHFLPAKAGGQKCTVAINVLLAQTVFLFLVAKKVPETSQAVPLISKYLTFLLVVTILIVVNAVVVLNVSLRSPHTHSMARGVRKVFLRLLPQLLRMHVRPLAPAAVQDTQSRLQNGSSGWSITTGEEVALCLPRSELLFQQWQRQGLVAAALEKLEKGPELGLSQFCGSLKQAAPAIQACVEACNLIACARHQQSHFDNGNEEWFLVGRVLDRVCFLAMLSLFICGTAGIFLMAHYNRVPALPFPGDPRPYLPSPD
Sequence (P11230 whole entry): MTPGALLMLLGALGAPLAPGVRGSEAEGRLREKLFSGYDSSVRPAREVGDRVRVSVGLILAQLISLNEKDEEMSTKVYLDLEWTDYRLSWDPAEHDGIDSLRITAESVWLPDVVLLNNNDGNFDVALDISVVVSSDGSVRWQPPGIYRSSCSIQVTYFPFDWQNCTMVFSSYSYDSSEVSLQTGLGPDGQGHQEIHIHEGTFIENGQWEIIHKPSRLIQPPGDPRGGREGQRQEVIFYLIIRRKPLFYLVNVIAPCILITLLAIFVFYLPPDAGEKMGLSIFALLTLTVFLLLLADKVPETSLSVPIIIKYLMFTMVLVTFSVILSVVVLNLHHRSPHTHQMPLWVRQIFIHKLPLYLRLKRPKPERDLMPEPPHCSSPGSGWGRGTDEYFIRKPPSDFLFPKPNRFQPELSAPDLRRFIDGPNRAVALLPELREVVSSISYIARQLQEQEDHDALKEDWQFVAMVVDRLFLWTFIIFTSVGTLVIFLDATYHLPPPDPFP
Sequence (Q07001 whole entry): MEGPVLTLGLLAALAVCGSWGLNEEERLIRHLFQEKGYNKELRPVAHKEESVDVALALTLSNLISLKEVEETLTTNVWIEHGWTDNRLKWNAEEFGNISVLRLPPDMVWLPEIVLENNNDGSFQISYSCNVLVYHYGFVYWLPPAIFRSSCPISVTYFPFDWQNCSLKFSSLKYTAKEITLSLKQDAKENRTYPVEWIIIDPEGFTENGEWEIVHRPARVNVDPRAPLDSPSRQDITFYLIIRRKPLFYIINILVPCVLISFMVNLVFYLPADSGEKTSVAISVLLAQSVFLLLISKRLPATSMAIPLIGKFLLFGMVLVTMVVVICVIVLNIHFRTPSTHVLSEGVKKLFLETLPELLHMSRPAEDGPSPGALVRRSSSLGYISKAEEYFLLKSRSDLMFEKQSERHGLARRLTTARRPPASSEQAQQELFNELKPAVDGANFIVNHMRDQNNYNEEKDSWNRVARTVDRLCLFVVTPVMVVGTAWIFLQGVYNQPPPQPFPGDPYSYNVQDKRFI
Reported endpoint: pIC50
To interpret pIC50, take it as minus log10 of a concentration measured in moles per litre.

For orientation, consider the following solved cases.
>>> measurement("COC(=O)[C@@H]1[C@H]2CC[C@@H](C[C@H]1c1ccc(Cl)c(C)c1)N2C")
4.89
>>> measurement("Cc1cc2nc([C@H]3[C@@H](c4ccc(Cl)cc4)C[C@@H]4CC[C@H]3N4C)[nH]c2cc1C")
5.33
>>> measurement("COC(=O)[C@H]1[C@@H](c2ccc(Cl)c(C)c2)C[C@@H]2CC[C@H]1N2C")
4.59

From here, focus on the item given below.
Reported pIC50 of Cc1ccc([C@H]2C[C@@H]3CC[C@H]([C@H]2c2cc(-c4ccc(Cl)cc4)no2)N3C)cc1 : 4.02

* * *

biological target: Sodium-dependent noradrenaline transporter (Homo sapiens); assay: Inhibition of human NET expressed in HEK293 cells assessed as inhibition of [3H]NE reuptake after 10 mins by scintillation counting
Sequence (P23975 whole entry): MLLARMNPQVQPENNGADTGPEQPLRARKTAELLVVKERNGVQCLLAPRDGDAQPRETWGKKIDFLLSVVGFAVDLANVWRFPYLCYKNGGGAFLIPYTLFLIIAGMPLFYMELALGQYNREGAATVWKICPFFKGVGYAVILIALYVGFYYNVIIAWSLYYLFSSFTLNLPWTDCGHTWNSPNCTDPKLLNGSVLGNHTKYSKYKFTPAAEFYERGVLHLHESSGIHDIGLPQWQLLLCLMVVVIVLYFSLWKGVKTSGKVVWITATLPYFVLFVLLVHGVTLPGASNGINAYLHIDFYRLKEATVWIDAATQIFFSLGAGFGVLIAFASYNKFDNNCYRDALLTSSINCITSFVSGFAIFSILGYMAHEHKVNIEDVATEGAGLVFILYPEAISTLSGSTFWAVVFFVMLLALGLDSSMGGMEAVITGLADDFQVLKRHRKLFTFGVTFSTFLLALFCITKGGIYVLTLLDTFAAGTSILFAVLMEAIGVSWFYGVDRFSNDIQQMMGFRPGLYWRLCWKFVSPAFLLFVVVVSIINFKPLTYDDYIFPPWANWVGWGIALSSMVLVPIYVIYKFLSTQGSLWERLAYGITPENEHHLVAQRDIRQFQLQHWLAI
pIC50: −log10 of the molar value.
Threshold rule: pIC50 greater than or equal to 9 is yes (1); below that, no (0).

>>> label("Cc1ccc([C@H]2C[C@@H]3CC[C@H]([C@H]2C(=O)OC(C)C)N3C)cc1")
"no (0)"
>>> label("COc1ccc(-c2cc([C@H]3[C@@H](c4ccc(Cl)cc4)C[C@@H]4CC[C@H]3N4C)on2)cc1")
"no (0)"
>>> label("COC(=O)[C@@H]1[C@H]2CC[C@@H](C[C@H]1c1ccc(C)c(F)c1)N2")
"yes (1)"
>>> label("Cc1cc2nc([C@H]3[C@@H](c4ccc(Cl)cc4)C[C@@H]4CC[C@H]3N4C)[nH]c2cc1C")
"no (0)"
>>> label("CCc1cc([C@H]2[C@@H](c3ccc(C)cc3)C[C@@H]3CC[C@H]2N3C)on1")
"no (0)"

Please examine the following record next.
Input line: Hi team, for Cc1ccc([C@H]2C[C@@H]3CC[C@H]([C@H]2C(=O)OC2CCC2)N3C)cc1 , is the recorded pIC50 at or above 9?
Output line: no (0)
